- System: Enterococcus sp.
- TEST SUMMARY: In vitro antibacterial evaluation: minimum inhibitory concentration (MIC), broth dilution method
- Format: cell-based
- DETAILS: Enterococcus faecalis (GC 2691); 18 hours at 35° C.

- MOLECULE: "CC(C1CCCCC1)C1NC(=O)CNC(=O)C(CO)NC(=O)C(C(O)C2CNC(=N)N2C2OC(CO)C(O)C(O)C2O)NC(=O)C(C(O)C2CNC(=N)N2)NC(=O)C(Cc2ccc(OC3OC(CO)C(OC4OC5COC6(OC5C(O)C4O)C4CC5CC(C4)CC6C5)C(O)C3O)cc2)NC1=O (centres unmarked)"
  RESULT OPERATOR: "="
  MIC Enterococcus faecalis (GC 2691) / µg/mL: 2
- MOLECULE: "COc1ccc(COC2C(CO)OC(OC3C(CO)OC(Oc4ccc(CC5NC(=O)C(C(C)c6ccccc6)NC(=O)CNC(=O)C(CO)NC(=O)C(C(O)C6CNC(=N)N6C6OC(CO)C(O)C(O)C6O)NC(=O)C(C(O)C6CNC(=N)N6)NC5=O)cc4)C(O)C3O)C(O)C2O)cc1OCc1ccccc1 (centres unmarked) [Example 239a]"
  RESULT OPERATOR: "="
  MIC Enterococcus faecalis (GC 2691) / µg/mL: 8
- MOLECULE: "CC(c1ccccc1)C1NC(=O)CNC(=O)C(CO)NC(=O)C(C(O)C2CNC(=N)N2C2OC(CO)C(O)C(O)C2O)NC(=O)C(C(O)C2CNC(=N)N2)NC(=O)C(Cc2ccc(OC3OC(CO)C(OC4OC5COC6(CCCCC6C)OC5C(O)C4O)C(O)C3O)cc2)NC1=O (centres unmarked)"
  RESULT OPERATOR: "="
  MIC Enterococcus faecalis (GC 2691) / µg/mL: 16
- MOLECULE: "COc1ccc2cc(COC3C(CO)OC(OC4C(CO)OC(Oc5ccc(CC6NC(=O)C(C(C)c7ccccc7)NC(=O)CNC(=O)C(CO)NC(=O)C(CC7CNC(=N)N7C7OC(CO)C(O)C(O)C7O)NC(=O)C(CC7CNC(=N)N7)NC6=O)cc5)C(O)C4O)C(O)C3O)ccc2c1 (centres unmarked) [Example 245a]"
  RESULT OPERATOR: "="
  MIC Enterococcus faecalis (GC 2691) / µg/mL: 8
- MOLECULE: "COc1ccc2cc(C3OCC4OC(OC5C(CO)OC(Oc6ccc(CC7NC(=O)C(C(C)c8ccccc8)NC(=O)CNC(=O)C(CO)NC(=O)C(CC8CNC(=N)N8C8OC(CO)C(O)C(O)C8O)NC(=O)C(CC8CNC(=N)N8)NC7=O)cc6)C(O)C5O)C(O)C(O)C4O3)ccc2c1 (centres unmarked)"
  RESULT OPERATOR: "="
  MIC Enterococcus faecalis (GC 2691) / µg/mL: 32
- MOLECULE: "CC(c1ccc(Cl)cc1)C1NC(=O)CNC(=O)C(CO)NC(=O)C(C(O)C2CNC(=N)N2C2OC(CO)C(O)C(O)C2O)NC(=O)C(C(O)C2CNC(=N)N2)NC(=O)C(Cc2ccc(OC3OC(CO)C(OC4OC5COC(c6ccccc6)OC5C(O)C4O)C(O)C3O)cc2)NC1=O (centres unmarked)"
  RESULT OPERATOR: "="
  MIC Enterococcus faecalis (GC 2691) / µg/mL: 0.5
- MOLECULE: "CCOc1cc(COCC2OC(OC3C(CO)OC(Oc4ccc(CC5NC(=O)C(C(C)c6ccccc6)NC(=O)CNC(=O)C(CO)NC(=O)C(C(O)C6CNC(=N)N6C6OC(CO)C(O)C(O)C6O)NC(=O)C(C(O)C6CNC(=N)N6)NC5=O)cc4)C(O)C3O)C(O)C(O)C2O)ccc1OC (centres unmarked)"
  RESULT OPERATOR: "="
  MIC Enterococcus faecalis (GC 2691) / µg/mL: 16
- MOLECULE: "CC(c1ccccc1)C1NC(=O)CNC(=O)C(CO)NC(=O)C(C(O)C2CNC(=N)N2C2OC(CO)C(O)C(O)C2O)NC(=O)C(C(O)C2CNC(=N)N2)NC(=O)C(Cc2ccc(OC3OC(CO)C(OC4OC(COCc5cccs5)C(O)C(O)C4O)C(O)C3O)cc2)NC1=O (centres unmarked)"
  RESULT OPERATOR: "="
  MIC Enterococcus faecalis (GC 2691) / µg/mL: 32
- MOLECULE: "CC(C)=CCCC(C)=CCCC(C)=CCOc1cccc(C2OCC3OC(OC4C(CO)OC(Oc5ccc(CC6NC(=O)C(C(C)c7ccccc7)NC(=O)CNC(=O)C(CO)NC(=O)C(C(O)C7CNC(=N)N7C7OC(CO)C(O)C(O)C7O)NC(=O)C(C(O)C7CNC(=N)N7)NC6=O)cc5)C(O)C4O)C(O)C(O)C3O2)c1 (centres unmarked)"
  RESULT OPERATOR: ">"
  MIC Enterococcus faecalis (GC 2691) / µg/mL: 64
- MOLECULE: "CC(c1ccccc1)C1NC(=O)CNC(=O)C(CO)NC(=O)C(C(O)C2CNC(=N)N2C2OC(CO)C(O)C(O)C2O)NC(=O)C(C(O)C2CNC(=N)N2)NC(=O)C(Cc2ccc(OC3OC(CO)C(OC4OC(COCC=Cc5ccccc5)C(O)C(O)C4O)C(O)C3O)cc2)NC1=O (centres unmarked)"
  RESULT OPERATOR: "="
  MIC Enterococcus faecalis (GC 2691) / µg/mL: 16
- MOLECULE: "COc1ccc2cc(COCC3OC(OC4C(CO)OC(Oc5ccc(CC6NC(=O)C(C(C)c7ccccc7)NC(=O)CNC(=O)C(CO)NC(=O)C(CC7CNC(=N)N7C7OC(CO)C(O)C(O)C7O)NC(=O)C(CC7CNC(=N)N7)NC6=O)cc5)C(O)C4O)C(O)C(O)C3O)ccc2c1 (centres unmarked)"
  RESULT OPERATOR: "="
  MIC Enterococcus faecalis (GC 2691) / µg/mL: 32
- MOLECULE: "COc1ccc(COCC2OC(OC3C(CO)OC(Oc4ccc(CC5NC(=O)C(C(C)c6ccccc6)NC(=O)CNC(=O)C(CO)NC(=O)C(C(O)C6CNC(=N)N6C6OC(CO)C(O)C(O)C6O)NC(=O)C(C(O)C6CNC(=N)N6)NC5=O)cc4)C(O)C3O)C(O)C(O)C2O)cc1OCc1ccccc1 (centres unmarked)"
  RESULT OPERATOR: "="
  MIC Enterococcus faecalis (GC 2691) / µg/mL: 4
- MOLECULE: "N=C1NCC(C(O)C2NC(=O)C(CC3CCC(OC4OC(CO)C(OC5OC6COC7(OC6C(O)C5O)C5CC6CC(C5)CC7C6)C(O)C4O)CC3)NC(=O)C(CC3CCCCC3)NC(=O)CNC(=O)C(CO)NC(=O)C(C(O)C3CNC(=N)N3C3OC(CO)C(O)C(O)C3O)NC2=O)N1 (centres unmarked)"
  RESULT OPERATOR: ">"
  MIC Enterococcus faecalis (GC 2691) / µg/mL: 64
- MOLECULE: "CC(c1ccccc1)C1NC(=O)CNC(=O)C(CO)NC(=O)C(CC2CNC(=N)N2C2OC(CO)C(O)C(O)C2O)NC(=O)C(CC2CNC(=N)N2)NC(=O)C(Cc2ccc(OC3OC(CO)C(OC4OC(COCc5ccc(OCc6ccccc6)cc5)C(O)C(O)C4O)C(O)C3O)cc2)NC1=O (centres unmarked)"
  RESULT OPERATOR: "="
  MIC Enterococcus faecalis (GC 2691) / µg/mL: 32

Values compiled from patent US8247211B2.
